Target: Fatty-acid amide hydrolase 1 (Homo sapiens, UniProt O00519)
Sequence (O00519 whole entry): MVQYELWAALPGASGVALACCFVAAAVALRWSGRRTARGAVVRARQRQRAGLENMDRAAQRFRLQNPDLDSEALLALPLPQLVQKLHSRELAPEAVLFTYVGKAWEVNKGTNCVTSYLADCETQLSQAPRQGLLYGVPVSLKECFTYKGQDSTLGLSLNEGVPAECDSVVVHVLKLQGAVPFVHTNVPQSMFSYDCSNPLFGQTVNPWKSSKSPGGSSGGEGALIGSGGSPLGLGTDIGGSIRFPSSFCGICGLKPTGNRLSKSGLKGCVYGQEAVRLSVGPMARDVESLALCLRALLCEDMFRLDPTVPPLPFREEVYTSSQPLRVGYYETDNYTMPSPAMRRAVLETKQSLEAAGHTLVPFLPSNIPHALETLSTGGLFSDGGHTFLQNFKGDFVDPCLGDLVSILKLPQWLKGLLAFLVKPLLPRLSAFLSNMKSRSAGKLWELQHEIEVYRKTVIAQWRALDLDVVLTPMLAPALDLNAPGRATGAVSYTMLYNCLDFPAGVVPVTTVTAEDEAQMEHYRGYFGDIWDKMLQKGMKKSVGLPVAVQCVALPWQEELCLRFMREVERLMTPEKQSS
Assay: Inhibition of human FAAH expressed in human H4 cells
Format: cell-based
Each entry below lists one item and its recorded pIC50 value.
Notebook: values listed as pIC50 are -log10 of the concentration (mol/L).

CCCCCOc1ccc(NC(=O)O/N=C/c2ccc(F)cc2)cc1 | 8.74
CCCCCCOc1ccc(NC(=O)O/N=C/c2ccccc2)cc1 | 8.10
CCCCCCCCCCCCOc1ccc(NC(=O)O/N=C/c2ccccc2)cc1 | 8.62
CCCCCCCCCCCOc1ccc(NC(=O)O/N=C/c2cccnc2)cc1 | 9.82
CCOc1ccc(NC(=O)O/N=C/c2cccnc2)cc1 | 6.82

Lookup result for `COc1ccc(NC(=O)O/N=C/c2ccccc2)cc1` ; measured pIC50: 6.54

----------
molecular target: Fatty-acid amide hydrolase 1 (Homo sapiens, UniProt O00519); assay: Inhibition of human FAAH expressed in human H4 cells
parameter: pIC50
To interpret pIC50, take it as minus log10 of a concentration measured in moles per litre.

Solved entries (count: 5):
CCOc1ccc(NC(=O)O/N=C/c2ccccc2)cc1 | 7.09
CCCCOc1ccc(CNC(=O)Oc2cccnc2)cc1 | 8.21
CCCCOc1ccc(C(CC)NC(=O)Oc2ccccc2F)cc1 (stereo unspecified) | 8.11
CCCCCCCCCCCCOc1ccc(NC(=O)O/N=C/c2cccnc2)cc1 | 9.46
CCCCCCCOc1ccc(NC(=O)O/N=C/c2ccc(F)cc2)cc1 | 8.64

Now take the following compound into account.
The reported pIC50 of the compound `CCCCCCCCCOc1ccc(NC(=O)ON=C(C)C)cc1` was 8.68

----------
target: UniProt:O00519
parameter: Ki (µM)
Your answer should be a plain number; it is taken to be in µM.

Tested on UniProt:O00519: `CCCCOc1ccc(NC(=O)O/N=C/c2ccc(F)cc2)cc1` . Observed Ki: 0.03

----------
Quick reference: IC50 of the listed items.
Target: Fatty-acid amide hydrolase 1 (Homo sapiens)
Sequence (O00519 whole entry): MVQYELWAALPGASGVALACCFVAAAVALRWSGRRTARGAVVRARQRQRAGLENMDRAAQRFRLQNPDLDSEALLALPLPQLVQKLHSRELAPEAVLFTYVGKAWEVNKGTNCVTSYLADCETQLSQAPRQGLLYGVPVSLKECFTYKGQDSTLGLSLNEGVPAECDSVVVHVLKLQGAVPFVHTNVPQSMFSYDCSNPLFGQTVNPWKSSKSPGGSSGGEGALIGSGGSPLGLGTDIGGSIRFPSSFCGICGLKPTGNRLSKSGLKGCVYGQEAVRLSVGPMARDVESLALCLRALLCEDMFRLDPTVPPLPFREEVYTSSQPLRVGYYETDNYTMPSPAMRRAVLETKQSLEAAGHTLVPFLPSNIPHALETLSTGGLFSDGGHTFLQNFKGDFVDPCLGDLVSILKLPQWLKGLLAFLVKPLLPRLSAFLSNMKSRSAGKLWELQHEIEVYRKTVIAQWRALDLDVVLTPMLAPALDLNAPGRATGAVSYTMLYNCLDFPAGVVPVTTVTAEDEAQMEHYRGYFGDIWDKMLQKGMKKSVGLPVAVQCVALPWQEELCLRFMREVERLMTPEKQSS
Assay: Inhibition of human FAAH expressed in human H4 cells
Dear colleague, please return just the value in nM, with no unit written.

Below are worked cases with known answers.
CCCCCCCOc1ccc(NC(=O)Oc2ccccc2)cc1 | 8.6
CCCCCCCCOc1ccc(NC(=O)Oc2ccccc2F)cc1 | 19

So, CCCCOc1ccc(C(CC)NC(=O)Oc2ccc(F)cc2)cc1 (stereo not drawn) ? Its IC50 was 12

Sample `CCCCOc1ccc(NC(=O)Oc2ccc(F)cc2)cc1` ; IC50 observed: 120

// IC50 lookup, molecule = `CCCCCCCOc1ccc(NC(=O)Oc2ccccc2F)cc1` , result: 28

For record `CCOc1ccc(NC(=O)ON=C(C)C)cc1` the listed IC50 is 730

Quick note, IC50 for `CCCCCCCCCCOc1ccc(NC(=O)O/N=C/c2ccc(F)cc2)cc1` landed at 0.25

The reported IC50 of the molecule `CCCCOc1ccc(NC(=O)Oc2ccccc2F)cc1` was 340
